As shown below, each of these molecules has a reported glomerular separation value.
tested on: Danio rerio Tg(wt1b:EGFP) embryo, pronephros; test: glomerular separation, fold change vs DMSO control; higher = glomeruli further apart (abnormal); conditions: 25 µM; exposure: 24-48 hpf
Counter-ions that a name gives are not always drawn.

Below, each entry is followed by its recorded glomerular separation result.
CN1[C@@H]2CC[C@H]1C[C@@H](OC(=O)c1c[nH]c3ccccc13)C2 [Tropisetron hydrochloride]    1.8
C[C@]12C=CC(=O)C=C1CC[C@@H]1[C@@H]2C(=O)C[C@@]2(C)[C@H]1CC[C@]2(O)C(=O)CO    1.19
Cn1c(=O)c2c(ncn2C)n(C)c1=O    0.852

Exam item: Consider the molecule `CN/C(=N\CCSCc1nc[nH]c1C)NC#N` and give its measured glomerular separation.
Marked response: 1.02

Exam item: Entry to check: `C(=C\c1ccccc1)/CN1CCN(C(c2ccccc2)c2ccccc2)CC1`
Marked response: 1.15
